Origin of measurements: paper PMC11531508

Molecular target: AChE (Electrophorus electricus) (Electrophorus electricus)
Sequence (O42275 24-633): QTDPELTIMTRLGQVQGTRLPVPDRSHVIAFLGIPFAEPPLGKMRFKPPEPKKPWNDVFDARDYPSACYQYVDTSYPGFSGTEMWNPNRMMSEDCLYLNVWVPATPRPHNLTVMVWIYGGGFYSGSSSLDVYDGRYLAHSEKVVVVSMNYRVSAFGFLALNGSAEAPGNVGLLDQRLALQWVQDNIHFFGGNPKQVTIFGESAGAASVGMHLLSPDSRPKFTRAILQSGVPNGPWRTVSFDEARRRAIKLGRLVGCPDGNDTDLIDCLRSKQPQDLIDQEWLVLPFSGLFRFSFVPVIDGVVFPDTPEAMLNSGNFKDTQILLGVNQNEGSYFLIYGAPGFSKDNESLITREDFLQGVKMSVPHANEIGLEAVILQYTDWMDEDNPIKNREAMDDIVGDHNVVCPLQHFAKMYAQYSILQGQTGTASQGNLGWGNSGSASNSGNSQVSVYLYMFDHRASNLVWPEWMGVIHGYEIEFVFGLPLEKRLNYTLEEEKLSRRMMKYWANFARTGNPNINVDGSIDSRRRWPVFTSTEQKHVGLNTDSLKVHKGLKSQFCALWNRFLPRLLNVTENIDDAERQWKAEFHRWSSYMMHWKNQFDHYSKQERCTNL
pIC50: −log10 of the molar value.
Rule: pIC50 of 5 or more gives MET; anything lower gives NOT MET.

MOLECULE	LABEL
O=c1cc(OCCCCOc2ccc(-c3nc4ccccc4s3)cc2)c2ccccc2o1 [Compound 3a]	MET
CCOc1cc(-c2nc3ccccc3s2)ccc1OCCCCCCOc1cc(=O)oc2ccccc12 [Compound 3m]	NOT MET
CCOc1cc(-c2nc3ccccc3s2)ccc1OCCCCOc1cc(=O)oc2ccccc12 [Compound 3c]	NOT MET
COc1cc(-c2nc3ccccc3s2)cc(OC)c1OCCCCCOc1cc(=O)oc2ccccc12 [Compound 3i]	MET

Request: Hi team, for COc1cc(-c2nc3ccccc3s2)ccc1OCCCCCCOc1cc(=O)oc2ccccc12 [Compound 3l] , is the recorded pIC50 at or above 5?
Result: NOT MET

Request: Please check the record COc1cc(OCCCCOc2cc(=O)oc3ccccc23)ccc1-c1nc2ccccc2s1 [Compound 3e] and state if its pIC50 is at or above 5.
Result: NOT MET

Request: Entry COc1cc(-c2nc3ccccc3s2)cc(OC)c1OCCCCOc1cc(=O)oc2ccccc12 [Compound 3d] : is its pIC50 no less than 5?
Result: MET

Request: Check this molecule for pIC50 at or above 5: COc1cc(OCCCCCCOc2cc(=O)oc3ccccc23)ccc1-c1nc2ccccc2s1 [Compound 3o]
Result: NOT MET

Request: Could you verify whether the entry CCOc1cc(-c2nc3ccccc3s2)ccc1OCCCCCOc1cc(=O)oc2ccccc12 [Compound 3h] shows pIC50 of no less than 5?
Result: MET

Request: Record COc1cc(-c2nc3ccccc3s2)ccc1OCCCCCOc1cc(=O)oc2ccccc12 [Compound 3g] ; criterion: pIC50 no lower than 5. Met?
Result: MET

Request: In plain terms: is recorded pIC50 at least 5 for O=c1cc(OCCCCCCOc2ccc(-c3nc4ccccc4s3)cc2)c2ccccc2o1 [Compound 3k] ?
Result: NOT MET

Request: Please tell me: is the molecule COc1cc(-c2nc3ccccc3s2)ccc1OCCCCOc1cc(=O)oc2ccccc12 [Compound 3b] at or over 5 in terms of pIC50?
Result: NOT MET

* * *

What follows is a record of pIC50 for AChE (Electrophorus electricus) (Electrophorus electricus).
Note on pIC50: it is the negative log10 of concentration, concentration in mol/L.

O=c1cc(OCCCCCOc2ccc(-c3nc4ccccc4s3)cc2)c2ccccc2o1 5.07
COc1cc(-c2nc3ccccc3s2)cc(OC)c1OCCCCCCOc1cc(=O)oc2ccccc12 4.92

Here is another molecule to look at.
Value (pIC50, AChE (Electrophorus electricus) (Electrophorus electricus)) for record COc1cc(OCCCCCOc2cc(=O)oc3ccccc23)ccc1-c1nc2ccccc2s1 = 5.12
